Measured values drawn from patent US20060160879A1 for this set.

# TARGET OF ASSAY: mPGES-1 (Homo sapiens, UniProt O14684)
# Construct: made in house; host or cells: E. coli (membrane fraction)
# Sequence (O14684 whole entry, species assumed): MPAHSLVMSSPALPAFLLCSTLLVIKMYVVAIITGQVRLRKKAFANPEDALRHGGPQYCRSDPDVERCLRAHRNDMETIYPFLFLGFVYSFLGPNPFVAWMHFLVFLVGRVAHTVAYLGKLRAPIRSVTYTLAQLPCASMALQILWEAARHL
# ASSAY EXPLANATION: mPGES-1 assay: conversion of PGH2 to PGE2, PGE2 analysed by HPLC
# Type: biochemical
# Set-up: dose or concentration left out as unconfirmed
OBSERVATION TYPE: inhibition of mPGES-1 (%)

TEST SMILES	OBSERVATION TYPE	EXPERIMENTAL VALUE
CC(C)(C)c1ccc(-c2ccc3c(-c4ccccc4)c(C(=O)O)n(Cc4cccc(Oc5ccccc5)c4)c3c2)cc1	inhibition of mPGES-1	96
O=C(O)c1c(-c2ccccc2)c2cc(-c3cccnc3)ccc2n1CCCc1ccccc1	inhibition of mPGES-1	81
O=C(O)c1cccc(-c2c(C(=O)O)n(Cc3cccc([N+](=O)[O-])c3)c3cc(-c4ccc(OCc5ccccc5)cc4)ccc23)c1	inhibition of mPGES-1	93
CC(C)(C)c1ccc(-c2ccc3c(-c4cccs4)c(C(=O)O)n(Cc4cccc(Oc5ccccc5)c4)c3c2)cc1	inhibition of mPGES-1	100
O=C(O)c1c(-c2ccccc2)c2cc(-c3ccc4c(c3)OCO4)ccc2n1CCCc1ccccc1	inhibition of mPGES-1	85
O=C(O)c1cccc(-c2c(C(=O)O)n(Cc3cccc(C(F)(F)F)c3)c3cccc(-c4ccccc4)c23)c1	inhibition of mPGES-1	100
